The reported measurements were obtained from patent US6867207B2.

Tested on: IL-5 production
Assay: In vitro inhibition of IL-5 production in human blood (phytohemagglutinin-stimulated whole blood, ELISA);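 further: values marked with an asterisk were tested at 10 µM and unmarked values at 1 µM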
Format: cell-based
Conditions: test dose 1×10^−6 M, 48 hours
Method: In Vitro Inhibition of IL-5 Production in Human Blood Human Whole Blood Stimulation Peripheral blood from healthy male donors was drawn into heparinized syringes (12.5 U heparin/ml). Blood samples were three-fold diluted in RMPI 1640 medium (Life Technologies, Belgium) supplemented with 2 mM L-glutamine, 100 U/ml penicillin and 100 μg/ml streptomycin, and 300 μl fractions were distributed in 24-well multidisc plates. […]
Would you please tag the item 1.0 when its % inh. (percentage inhibition of IL-5 production) is 80% or above, and 0.0 when it is below?

- molecule: "COC(c1ccc(Cl)cc1)(c1nc2ccccc2s1)c1ccc(-n2ncc(=O)[nH]c2=O)cc1Cl (centres unmarked) [Comp 418]"
  qualitativeLabel: 0.0
- molecule: "CCOC(=O)N1CCC(Nc2ccnc(SC(c3ccc(Cl)cc3)c3c(Cl)cc(-n4ncc(=O)[nH]c4=O)cc3Cl)n2)CC1 (racemic) [Compound 351]"
  qualitativeLabel: 0.0
- molecule: "Cc1ccccc1-c1nnc(C(c2ccc(Cl)cc2)c2c(Cl)cc(-n3ncc(=O)[nH]c3=O)cc2Cl)o1 (racemic) [Compound 188]"
  qualitativeLabel: 1.0
- molecule: "CN(C)CCNC(=O)c1sc(C(c2ccc(Cl)cc2)c2c(Cl)cc(-n3ncc(=O)[nH]c3=O)cc2Cl)nc1-c1ccccc1.O (racemic) [Comp 312]"
  qualitativeLabel: 0.0
- molecule: "O=c1cnn(-c2ccc(C(Sc3ccc(F)cc3)c3ccc(Cl)cc3)c(Cl)c2)c(=O)[nH]1 (racemic) [Compound 57]"
  qualitativeLabel: 0.0
- molecule: "O=c1cnn(-c2ccc(C(Nc3nccs3)c3ccc(Cl)cc3)c(Cl)c2)c(=O)[nH]1 (racemic) [Compound 44]"
  qualitativeLabel: 0.0
- molecule: "O=c1cnn(-c2ccc(C(Sc3nccc(-c4cccs4)n3)c3ccc(Cl)cc3)c(Cl)c2)c(=O)[nH]1 (centres unmarked) [Compound 84]"
  qualitativeLabel: 0.0
- molecule: "CN(C)c1cccc(-c2nnc(C(c3ccc(Cl)cc3)c3c(Cl)cc(-n4ncc(=O)[nH]c4=O)cc3Cl)o2)c1 (racemic) [Compound 182]"
  qualitativeLabel: 0.0
- molecule: "O=c1cnn(-c2cc(Cl)c(C(c3ccc(Cl)cc3)c3nnc(Cc4ccccc4)o3)c(Cl)c2)c(=O)[nH]1 (racemic) [Compound 173]"
  qualitativeLabel: 0.0
- molecule: "CCOC(=O)N1CCC(c2nnc(C(c3ccc(Cl)cc3)c3c(Cl)cc(-n4ncc(=O)[nH]c4=O)cc3Cl)o2)CC1 (racemic) [Compound 191]"
  qualitativeLabel: 0.0
- molecule: "O=c1cnn(-c2cc(Cl)c(C(Sc3nc(-c4ccccc4)cs3)c3ccc(Cl)cc3)c(Cl)c2)c(=O)[nH]1 (centres unmarked) [Compound 380]"
  qualitativeLabel: 1.0
- molecule: "O=c1cnn(-c2cc(Cl)c(C(Sc3ncccn3)c3ccc(Cl)cc3)c(Cl)c2)c(=O)[nH]1 (single isomer, unassigned) [Compound 346]"
  qualitativeLabel: 1.0
- molecule: "O=c1cnn(-c2ccc(C(Sc3ccc(C(F)(F)F)cn3)c3ccc(Cl)cc3)c(Cl)c2)c(=O)[nH]1 (centres unmarked) [Compound 88]"
  qualitativeLabel: 0.0
- molecule: "O=c1cnn(-c2cc(Cl)c(C(c3ccc(Cl)cc3)c3nc(-c4ccco4)cs3)c(Cl)c2)c(=O)[nH]1 (racemic) [Comp 236]"
  qualitativeLabel: 1.0
- molecule: "O=c1cnn(-c2cc(Cl)c(C(c3ccc(Cl)cc3)c3csc(-c4cccnc4)n3)c(Cl)c2)c(=O)[nH]1 (racemic) [Compound 375]"
  qualitativeLabel: 1.0
- molecule: "O=c1cnn(-c2cc(Cl)c(C(c3ccc(Cl)cc3)c3nc(-c4ccccc4F)cs3)c(Cl)c2)c(=O)[nH]1 (racemic) [Comp 242]"
  qualitativeLabel: 1.0
- molecule: "CN(C)CCSC(c1ccc(Cl)cc1)c1ccc(-n2ncc(=O)[nH]c2=O)cc1Cl (racemic) [Compound 54]"
  qualitativeLabel: 0.0
- molecule: "CN1CCC(Nc2ccnc(SC(c3ccc(Cl)cc3)c3c(Cl)cc(-n4ncc(=O)[nH]c4=O)cc3Cl)n2)CC1.Cl.O (racemic) [Compound 354]"
  qualitativeLabel: 0.0
- molecule: "Cc1nc(-c2ccccc2)c(C(c2ccc(Cl)cc2)c2c(Cl)cc(-n3ncc(=O)[nH]c3=O)cc2Cl)s1 (racemic) [Compound 136]"
  qualitativeLabel: 1.0
- molecule: "O=c1cnn(-c2ccc(C(c3ccc(Cl)cc3)c3sc(-c4ccccc4Cl)nc3-c3ccccc3Cl)c(Cl)c2)c(=O)[nH]1 (racemic) [Compound 151]"
  qualitativeLabel: 0.0
- molecule: "O=c1cnn(-c2ccc(C(c3ccc(Cl)cc3)c3cnc(-c4ccccc4)s3)c(Cl)c2)c(=O)[nH]1 (racemic) [Compound 141]"
  qualitativeLabel: 0.0
- molecule: "Cc1cc(C)nc(SC(c2ccc(Cl)cc2)c2ccc(-n3ncc(=O)[nH]c3=O)cc2Cl)n1 (racemic) [Compound 66]"
  qualitativeLabel: 0.0
- molecule: "Cc1sc(C(C)(c2ccc(Cl)c(Cl)c2)c2c(Cl)cc(-n3ncc(=O)[nH]c3=O)cc2Cl)nc1-c1ccccc1 (racemic) [Comp 233]"
  qualitativeLabel: 1.0
- molecule: "Cc1cccc(-c2csc(C(c3ccc(Cl)cc3)c3c(Cl)cc(-n4ncc(=O)[nH]c4=O)cc3Cl)n2)c1 (racemic) [Comp 22]"
  qualitativeLabel: 1.0
